- Tested on: Paracentrotus lividus
- procedure-details: Antimitotic activity in sea urchin embryo assessed as cleavage alteration exposed 8 to 15 mins after fertilization 45 to 55 mins before first mitotic cycle completion measured at 2.5 to 5.5 hrs post dose
- Format: functional
quantity-kind: EC (µM)
Form entry: value (µM) — number only.

A selection of reference data follows.
{"molecule": "O=C1CC(c2cccc(F)c2)c2snc(-c3cccc(F)c3)c2N1 (stereo unspecified)", "measured-on": "Paracentrotus lividus", "quantity-kind": "EC", "number": 1}
{"molecule": "O=C1CC(c2ccc(F)cc2)c2snc(-c3cccc(F)c3)c2N1 (stereo unspecified)", "measured-on": "Paracentrotus lividus", "quantity-kind": "EC", "number": 1}
{"molecule": "COc1ccc(-c2nsc3c2NC(=O)CC3c2ccc(Cl)cc2)cc1 (stereo unspecified)", "measured-on": "Paracentrotus lividus", "quantity-kind": "EC", "number": 0.1}

Fill in the blank: the reported EC of O=C1CC(c2ccsc2)c2snc(-c3cccc(F)c3)c2N1 (stereo unspecified) is ____.
0.05

Fill in the blank: the reported EC of COc1ccc(-c2nsc3c2NC(=O)CC3c2cc3c(c(OC)c2OC)OCO3)cc1 (stereo unspecified) is ____.
0.2

* * *

Quick list: EC per entry.
- Tested on: Paracentrotus lividus
- procedure-details: Antimitotic activity in sea urchin embryo assessed as cleavage alteration exposed 8 to 15 mins after fertilization 45 to 55 mins before first mitotic cycle completion measured at 2.5 to 5.5 hrs post dose
- Type: functional
Form entry: value (µM) — number only.

{"compound": "O=C1CC(c2ccsc2)c2snc(-c3ccc(Cl)cc3)c2N1 (configuration not stated)", "measured-on": "Paracentrotus lividus", "EC / µM": 0.01}
{"compound": "COc1cccc(C2CC(=O)Nc3c(-c4ccc(F)cc4)nsc32)c1 (configuration not stated)", "measured-on": "Paracentrotus lividus", "EC / µM": 1}
{"compound": "O=C1CC(c2cccc(Cl)c2)c2snc(-c3cccc(F)c3)c2N1 (configuration not stated)", "measured-on": "Paracentrotus lividus", "EC / µM": 1}
{"compound": "COc1ccc(C2CC(=O)Nc3c(-c4ccc(F)cc4)nsc32)cc1 (configuration not stated)", "measured-on": "Paracentrotus lividus", "EC / µM": 2}
{"compound": "COc1ccc(-c2nsc3c2NC(=O)CC3c2cc(OC)c(O)c(O)c2OC)cc1 (configuration not stated)", "measured-on": "Paracentrotus lividus", "EC / µM": 1}

Fill in the blank: the reported EC of O=C1CC(c2ccc3c(c2)OCO3)c2snc(-c3cccc(F)c3)c2N1 (configuration not stated) is ____.
1

Fill in the blank: the reported EC of COc1ccc(-c2nsc3c2NC(=O)CC3c2cccc(Cl)c2)cc1 (configuration not stated) is ____.
0.01

Fill in the blank: the reported EC of COc1cc(C2CC(=O)Nc3c(-c4ccccc4)nsc32)cc2c1OCO2 (configuration not stated) is ____.
4

Fill in the blank: the reported EC of COc1ccc(-c2nsc3c2NC(=O)CC3c2ccc(F)cc2)cc1 (configuration not stated) is ____.
0.01

Fill in the blank: the reported EC of COc1ccc(-c2nsc3c2NC(=O)CC3c2ccc3c(c2)OCO3)cc1 (configuration not stated) is ____.
0.01

Fill in the blank: the reported EC of COc1ccc(-c2nsc3c2NC(=O)CC3c2cccc(OC)c2)cc1 (configuration not stated) is ____.
0.01

Fill in the blank: the reported EC of COc1ccc(-c2nsc3c2NC(=O)CC3c2cccc(Cl)c2)cc1OC (configuration not stated) is ____.
2

Fill in the blank: the reported EC of COc1ccc(-c2nsc3c2NC(=O)CC3c2ccsc2)cc1 (configuration not stated) is ____.
0.002

Fill in the blank: the reported EC of COc1ccc(-c2nsc3c2NC(=O)CC3c2cc(OC)c3c(c2OC)OCO3)cc1 (configuration not stated) is ____.
0.05

Fill in the blank: the reported EC of COc1cc(C2CC(=O)Nc3c(-c4ccc(Cl)cc4)nsc32)cc2c1OCO2 (configuration not stated) is ____.
2

Fill in the blank: the reported EC of COc1ccc(-c2nsc3c2NC(=O)CC3c2ccc3c(c2)OCCO3)cc1 (configuration not stated) is ____.
0.01

Fill in the blank: the reported EC of O=C1CC(c2cccc(Cl)c2)c2snc(-c3ccc(F)cc3)c2N1 (configuration not stated) is ____.
1

* * *

- procedure-details: Antiproliferative activity against human MDA-MB-231 cells measured after 96 hrs by Celltiter-Glo assay
- Type: functional, cell-based
- measurement-conditions: MDA-MB-231, 96 h
quantity-kind: IC50 (nM)
Form entry: value (nM) — number only.

{"compound": "COc1ccc(-c2nsc3c2NC(=O)CC3c2cccc(Cl)c2)cc1 (stereo not drawn)", "IC50 / nM": 1620}
{"compound": "COc1ccc(-c2nsc3c2NC(=O)CC3c2ccsc2)cc1 (stereo not drawn)", "IC50 / nM": 192}
{"compound": "COc1ccc(-c2nsc3c2NC(=O)CC3c2cccc(OC)c2)cc1 (stereo not drawn)", "IC50 / nM": 1390}
{"compound": "O=C1CC(c2ccsc2)c2snc(-c3ccc(Cl)cc3)c2N1 (stereo not drawn)", "IC50 / nM": 1630}

Fill in the blank: the reported IC50 of COc1ccc(/C=C\c2cc(OC)c(OC)c(OC)c2)cc1OP(=O)([O-])[O-].[Na+].[Na+] [FOSBRETABULIN DISODIUM] is ____.
173

Fill in the blank: the reported IC50 of COc1ccc(-c2nsc3c2NC(=O)CC3c2ccc3c(c2)OCCO3)cc1 (stereo not drawn) is ____.
1710

* * *

- Tested on: Paracentrotus lividus
- procedure-details: Antimitotic activity in sea urchin embryo assessed as cleavage alteration exposed 8 to 15 mins after fertilization 45 to 55 mins before first mitotic cycle completion measured at 2.5 to 5.5 hrs post dose
- Format: functional
Class fulfilled: EC at least 0.5 µM. Class not fulfilled: EC below 0.5 µM.

Here are 8 molecules together with their reported answers.
{"molecule": "COc1ccc(/C=C\\c2cc(OC)c(OC)c(OC)c2)cc1OP(=O)([O-])[O-].[Na+].[Na+] [FOSBRETABULIN DISODIUM]", "cat": "not fulfilled"}
{"molecule": "O=C1CC(c2ccc3c(c2)OCO3)c2snc(-c3ccc(F)cc3)c2N1 (stereo not given)", "cat": "fulfilled"}
{"molecule": "COc1ccc(-c2nsc3c2NC(=O)CC3c2cc(OC)c3c(c2)OCO3)cc1 (stereo not given)", "cat": "fulfilled"}
{"molecule": "COc1ccc(-c2nsc3c2NC(=O)CC3c2cccc(F)c2)cc1 (stereo not given)", "cat": "not fulfilled"}
{"molecule": "COc1cc(C2CC(=O)Nc3c(-c4cccc(F)c4)nsc32)cc2c1OCO2 (stereo not given)", "cat": "fulfilled"}
{"molecule": "O=C1CC(c2ccc(F)cc2)c2snc(-c3ccc(F)cc3)c2N1 (stereo not given)", "cat": "fulfilled"}
{"molecule": "COc1cc(C2CC(=O)Nc3c(-c4ccc(Cl)cc4)nsc32)c(OC)c2c1OCO2 (stereo not given)", "cat": "fulfilled"}
{"molecule": "COc1ccc(C2CC(=O)Nc3c(-c4cccc(F)c4)nsc32)cc1 (stereo not given)", "cat": "fulfilled"}

# ---- query molecule ----
// inclusive: EC at least 0.5 µM? input: O=C1CC(c2ccsc2)c2snc(-c3ccc(F)cc3)c2N1 (stereo not given)
not fulfilled

* * *

Quick list: IC50 per entry.
- procedure-details: Antiproliferative activity against human MDA-MB-DYT2 cells measured after 96 hrs by Celltiter-Glo assay
- Type: functional, cell-based
Form entry: value (µM) — number only.

{"compound": "COc1ccc(-c2nsc3c2NC(=O)CC3c2cccc(OC)c2)cc1 (stereo not drawn)", "unit-of-measure": "µM", "IC50": 1.91}
{"compound": "COc1ccc(-c2nsc3c2NC(=O)CC3c2ccsc2)cc1 (stereo not drawn)", "unit-of-measure": "µM", "IC50": 0.309}
{"compound": "COc1ccc(/C=C\\c2cc(OC)c(OC)c(OC)c2)cc1OP(=O)([O-])[O-].[Na+].[Na+] [FOSBRETABULIN DISODIUM]", "unit-of-measure": "µM", "IC50": 0.06}

Fill in the blank: the reported IC50 of COc1ccc(-c2nsc3c2NC(=O)CC3c2ccc3c(c2)OCCO3)cc1 (stereo not drawn) is ____.
1.36

* * *

- procedure-details: Antiproliferative activity against human MDA-MB-435 cells measured after 96 hrs by Celltiter-Glo assay
- Type: functional, cell-based
- measurement-conditions: MDA-MB-435, 96 h
pIC50: −log10 of the molar value.
Class 1: pIC50 at least 6. Class 0: pIC50 below 6.

{"compound": "COc1ccc(-c2nsc3c2NC(=O)CC3c2ccsc2)cc1 (stereo not drawn)", "cat": 1}
{"compound": "O=C1CC(c2ccsc2)c2snc(-c3ccc(Cl)cc3)c2N1 (stereo not drawn)", "cat": 1}
{"compound": "COc1ccc(-c2nsc3c2NC(=O)CC3c2cccc(OC)c2)cc1 (stereo not drawn)", "cat": 1}
{"compound": "COc1ccc(-c2nsc3c2NC(=O)CC3c2ccc(F)cc2)cc1 (stereo not drawn)", "cat": 0}
{"compound": "COc1ccc(-c2nsc3c2NC(=O)CC3c2ccc3c(c2)OCCO3)cc1 (stereo not drawn)", "cat": 1}

# ---- query compound ----
// inclusive: pIC50 at least 6? input: COc1ccc(/C=C\c2cc(OC)c(OC)c(OC)c2)cc1OP(=O)([O-])[O-].[Na+].[Na+] [FOSBRETABULIN DISODIUM]
1

Data credit: ChEMBL document CHEMBL3877272
